- STUDY SYSTEM: ATP-binding cassette transporter A1 (ABCA1) (UniProt P41233 1-2261, limits assumed); further: test concentration or dose not given here
- Sequence (P41233 whole entry): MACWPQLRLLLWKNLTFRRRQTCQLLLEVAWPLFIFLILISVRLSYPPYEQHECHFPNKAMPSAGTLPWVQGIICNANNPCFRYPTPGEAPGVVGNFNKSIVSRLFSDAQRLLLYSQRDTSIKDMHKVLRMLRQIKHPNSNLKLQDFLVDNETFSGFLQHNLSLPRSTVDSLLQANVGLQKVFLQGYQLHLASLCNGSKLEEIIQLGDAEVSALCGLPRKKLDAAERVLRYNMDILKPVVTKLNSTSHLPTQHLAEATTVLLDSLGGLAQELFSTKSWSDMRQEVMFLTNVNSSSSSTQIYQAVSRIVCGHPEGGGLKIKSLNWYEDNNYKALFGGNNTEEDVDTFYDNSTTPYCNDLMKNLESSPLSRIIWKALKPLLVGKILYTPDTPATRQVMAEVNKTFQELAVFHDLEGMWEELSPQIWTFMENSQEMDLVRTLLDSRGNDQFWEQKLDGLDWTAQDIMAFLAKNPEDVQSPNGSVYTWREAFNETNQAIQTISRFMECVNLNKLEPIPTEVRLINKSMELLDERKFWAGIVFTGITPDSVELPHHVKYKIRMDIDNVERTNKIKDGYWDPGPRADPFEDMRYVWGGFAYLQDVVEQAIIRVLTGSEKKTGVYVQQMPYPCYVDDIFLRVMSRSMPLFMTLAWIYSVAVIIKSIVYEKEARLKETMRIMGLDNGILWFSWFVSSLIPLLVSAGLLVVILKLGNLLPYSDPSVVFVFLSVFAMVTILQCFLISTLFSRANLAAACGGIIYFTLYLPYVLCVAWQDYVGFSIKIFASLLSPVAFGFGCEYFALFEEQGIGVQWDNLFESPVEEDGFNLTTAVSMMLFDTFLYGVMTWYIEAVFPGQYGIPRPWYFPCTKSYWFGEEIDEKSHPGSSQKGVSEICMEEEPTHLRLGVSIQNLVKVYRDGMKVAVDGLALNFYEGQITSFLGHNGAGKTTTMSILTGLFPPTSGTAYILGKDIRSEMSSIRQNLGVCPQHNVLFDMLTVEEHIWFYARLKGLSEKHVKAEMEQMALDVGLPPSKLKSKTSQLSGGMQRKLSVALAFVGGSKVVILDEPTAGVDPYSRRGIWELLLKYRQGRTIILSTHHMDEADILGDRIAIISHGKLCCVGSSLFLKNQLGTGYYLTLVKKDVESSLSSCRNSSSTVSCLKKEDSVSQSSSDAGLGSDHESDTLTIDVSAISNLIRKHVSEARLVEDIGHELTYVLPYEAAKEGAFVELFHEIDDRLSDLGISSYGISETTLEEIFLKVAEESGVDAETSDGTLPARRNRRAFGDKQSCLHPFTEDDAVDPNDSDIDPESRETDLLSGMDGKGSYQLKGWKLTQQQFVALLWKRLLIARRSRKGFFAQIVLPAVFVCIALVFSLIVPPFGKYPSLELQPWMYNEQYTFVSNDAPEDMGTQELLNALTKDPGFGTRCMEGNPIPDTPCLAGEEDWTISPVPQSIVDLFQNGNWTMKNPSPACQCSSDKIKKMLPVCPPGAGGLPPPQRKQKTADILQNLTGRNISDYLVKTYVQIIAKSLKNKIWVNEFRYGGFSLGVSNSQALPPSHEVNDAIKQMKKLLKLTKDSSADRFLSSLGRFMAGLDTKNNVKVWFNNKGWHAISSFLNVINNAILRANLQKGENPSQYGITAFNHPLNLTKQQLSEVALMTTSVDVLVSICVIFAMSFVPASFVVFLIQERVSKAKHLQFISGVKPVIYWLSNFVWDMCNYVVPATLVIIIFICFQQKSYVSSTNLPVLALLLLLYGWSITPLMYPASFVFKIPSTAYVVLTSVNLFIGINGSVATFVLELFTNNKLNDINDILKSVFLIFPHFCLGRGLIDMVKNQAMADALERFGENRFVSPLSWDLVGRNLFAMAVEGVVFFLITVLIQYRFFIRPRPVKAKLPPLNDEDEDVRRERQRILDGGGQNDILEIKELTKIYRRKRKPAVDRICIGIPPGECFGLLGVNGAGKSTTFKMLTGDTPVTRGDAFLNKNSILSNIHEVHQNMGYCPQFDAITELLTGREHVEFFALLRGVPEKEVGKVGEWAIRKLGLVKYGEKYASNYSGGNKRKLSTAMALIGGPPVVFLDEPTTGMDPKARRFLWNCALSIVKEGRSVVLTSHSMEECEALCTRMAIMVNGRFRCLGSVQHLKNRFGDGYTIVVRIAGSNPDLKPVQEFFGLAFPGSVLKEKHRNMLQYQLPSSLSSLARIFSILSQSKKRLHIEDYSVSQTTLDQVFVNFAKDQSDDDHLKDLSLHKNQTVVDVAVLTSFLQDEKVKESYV
- TEST SUMMARY: cell-based or functional assay
MEASUREMENT TYPE: % cholesterol efflux/8 hours, Plus cAMP

Known % cholesterol efflux/8 hours, Plus cAMP results, listed for orientation:
• DLRDKLDAWFDLFRDFLDRF [N1154-3] = 3.29%
• ELRERLEAWFELFREFLERF [N1154-1] = 5.2%
• DLRDRLDAWFDLFRDFLDRF [N1154-5] = 9.88%
• ELRDKLEAWFDLFREFLERF [N1154-2] = 3%

Kindly consider the entry below.
In plain terms, ELRDRLEAWFDLFREFLERF [N1154-4] has a documented % cholesterol efflux/8 hours, Plus cAMP of 11.4%

Measured values drawn from patent US20110190196A1 for this set.
